Listed compounds paired with reported normalized growth
# Measurement Notes: chemical genetic growth profiling, strain panel (AID 1159580);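 further: tested at 20 µM; growth read once vehicle control cultures reached saturation at 30 °C; 1 = growth at the plate median or of vehicle wells; lower values mean less growth of the strain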
# Run Conditions: S. cerevisiae deletion strains, growth OD, locus YMR125W, strain sto1, active compounds read low
Hit rate of the full screen: of about 5,500 compounds, about 2,000 (36%) were called active. Not shown: some 18% with an inconclusive outcome. The list shows a part of the results.
The answer should be written as a number, with no unit following it.

Past entries and their recorded results:
# Compound, Measured Endpoint, Measured Result
rows = [
    ("CC(=O)OCC1=C(C(=O)O)N2C(=O)[C@@H](NC(=O)Cc3cccs3)[C@H]2SC1", "normalized growth", 1.03),
    ("CC(=O)Oc1ccc2c(c1C(C)C)CCC1C(C)(C)CCC[C@]21C (some centres undefined)", "normalized growth", 1.03),
    ("CC(C1OC(C)(C)C(O)C1O)[C@@H]1CC[C@]2(C)C3=CCC4C(C)(C)C(=O)CC[C@]4(C)C3CC[C@@]12C (some centres undefined)", "normalized growth", 1.01),
]

Problem: Which normalized growth value belongs to O=C1[O][Bi][O]c2ccccc21 ?
Solution: 1.04

Problem: Moving on to CC(C)c1c(O)ccc2c1CCC1[C@@](C)(CO)CCC[C@]21C (some centres undefined)
Solution: 1.03

Problem: Cool, now CCOCN(C(=O)CCl)c1c(C)cccc1CC
Solution: 0.988

Problem: Cool, now CC(C)c1c(O)ccc2c1CCC1[C@@](C)(C=O)CCC[C@]21C (some centres undefined)
Solution: 1.01

Problem: Try CCCCCc1c2c(cc(O)c1C(=O)O)OC(=O)c1c(cc(OC)cc1C(=O)CCCC)O2 next.
Solution: 0.996

Problem: Then this compound: O=c1cc(-c2ccc(O)cc2)oc2cc(O[C@@H]3O[C@H](CO)[C@@H](O)[C@H](O)[C@H]3O)cc(O)c12
Solution: 0.968

====

# Measurement Notes: chemical genetic growth profiling, strain panel (AID 1159580)
# Run Conditions: S. cerevisiae deletion strains, growth OD, locus YGL086W, strain mad1, active compounds read low
In all, about 5,500 compounds went through this assay and about 2,000 (36%) were called active. Inconclusive results (about 18%) are left out. Some of the results follow.
Measured Endpoint: normalized growth

Check out these entries, answers already filled in.
# Compound, Measured Result
rows = [
    ("O=C(Cc1cccs1)NC1C(=O)N2C(C(=O)[O-])=C(C[n+]3ccccc3)CSC12 (centres undefined)", "0.999 (inactive)"),
    ("COC(=O)C[C@H]1C(C)(C)C2(Cl)O[C@@]34CC2C(=O)[C@]1(C)C3CC[C@]1(C)C4=CC(=O)O[C@H]1c1ccoc1 (some centres undefined)", "0.989 (inactive)"),
    ("C=C[C@H]1CN2CC[C@H]1C[C@@H]2[C@@H](OC(=O)OCC)c1ccnc2ccc(OC)cc12", "1.01 (inactive)"),
    ("CCc1cccc(CC)c1N(COC)C(=O)CCl", "0.999 (inactive)"),
    ("CCC(=O)c1c(O)cc(O)cc1O", "0.995 (inactive)"),
]

Problem: Which normalized growth is reported for this compound? CCOC(=O)c1c(C)cc(OC)cc1O
Solution: 0.943 (inactive)

====

# Measurement Notes: chemical genetic growth profiling, strain panel (AID 1159580);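 further: tested at 20 µM; growth read once vehicle control cultures reached saturation at 30 °C; 1 = growth at the plate median or of vehicle wells; lower values mean less growth of the strain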
# Run Conditions: S. cerevisiae deletion strains, growth OD, locus YMR125W, strain sto1, active compounds read low
Screen size: about 5,500 compounds; about 2,000 (36%) were called active. Inconclusive results (about 18%) are left out. The list shows a part of the results.
Values of normalized growth strictly less than 1 map to true (1), and values of at least 1 map to false (0).

Worked examples follow.
# Molecule, Class
measured = [
    ("C[C@@H]1O[C@@H](OC[C@H]2OC(Oc3c(-c4ccc(OCCO)c(OCCO)c4)oc4cc(OCCO)cc(O)c4c3=O)[C@H](O)[C@@H](O)[C@@H]2O)[C@H](O)[C@H](O)[C@H]1O (stereo partly specified)", "true (1)"),
    ("CC1CC[C@]2(NC1)O[C@H]1CC3C4CC[C@H]5C[C@@H](O)CC[C@]5(C)C4CC[C@]3(C)[C@H]1[C@@H]2C (stereo partly specified)", "true (1)"),
    ("CC1CCC2(OC1)OC1CC3C4CC[C@H]5C[C@@H](O)CC[C@]5(C)C4CC(=O)[C@]3(C)C1C2C (stereo partly specified)", "false (0)"),
]

Kindly consider the entry below.
Problem: Threshold test, normalized growth < 1: Cc1ccccc1OCC(O)CO (stereo unspecified)
Solution: true (1)

====

# Measurement Notes: chemical genetic growth profiling, strain panel (AID 1159580);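 further: tested at 20 µM; growth read once vehicle control cultures reached saturation at 30 °C; 1 = growth at the plate median or of vehicle wells; lower values mean less growth of the strain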
# Run Conditions: S. cerevisiae deletion strains, growth OD, locus YER155C, strain BEM2
Out of some 5,500 compounds screened, about 2,000 (36%) were called active. About 18% were inconclusive and are not listed. Rule as the data show it: active = normalized growth mostly below about 0.91 (no sharp cut-off); inconclusive = no clear call, values can overlap the other calls; inactive = mostly above about 0.92. The list shows a part of the results.
Please state which outcome applies, choosing from active, inactive

// known answers, use as guide
# Compound, Class
records = [
    ("NC(=O)CN1CCCC1=O", "inactive"),
    ("COC(=O)c1c(C)cc(OC)cc1O", "inactive"),
    ("COc1c2ccoc2cc2oc(=O)ccc12", "active"),
    ("O=c1c(O)c(-c2ccc(O)cc2O)oc2cc(O)cc(O)c12", "inactive"),
    ("Cc1cc(OC(=O)c2c(C)cc(O)cc2O)cc(O)c1C(=O)O", "inactive"),
    ("O=C(OC1Cc2c(O)cc(O)cc2OC1c1cc(=O)c(O)c2c(O)c(O)cc(C3Oc4cc(O)cc(O)c4CC3O)c2c1)c1cc(O)c(O)c(O)c1 (stereo not given)", "inactive"),
    ("CC12CCC3c4ccc(OC(=O)c5ccccc5)cc4CCC3C1CCC2O (stereo not given)", "inactive"),
    ("COc1ccc(-c2cc(=O)c3c(O)cc(O[C@@H]4O[C@H](CO[C@H]5O[C@H](C)[C@@H](O)[C@H](O)[C@@H]5O)[C@@H](O)[C@H](O)[C@H]4O)cc3o2)cc1O", "inactive"),
    ("CC/C(=C(/CC)c1ccc(O)cc1)c1ccc(O)cc1", "inactive"),
    ("CCC(N)C(O)c1ccc(O)c(O)c1 (stereo not given)", "inactive"),
]

Problem: Outcome? COc1cc(OC)c2ccc(=O)oc2c1
Solution: inactive

Problem: Then this compound: O=C(O[C@@H]1Cc2c(O)cc(O)cc2O[C@@H]1c1cc(O)c(=O)c2c(O)c(O)cc([C@H]3Oc4cc(O)cc(O)c4C[C@H]3O)c2c1)c1cc(O)c(O)c(O)c1
Solution: active

Problem: Please give the result for COc1c(C(C)C)oc2cc3oc(=O)ccc3cc12 too.
Solution: inactive

Problem: Similarly, CCC(c1ccc(O)cc1)C(CC)c1ccc(O)cc1 (stereo not given) ?
Solution: inactive

Problem: Could you do the same for CC(C)c1c(O)c(-c2cc3c(c(C(C)C)c2O)CCC2C(C)(C)CCC[C@]32C)cc2c1CCC1C(C)(C)CCC[C@]21C (stereo not given in full) , please?
Solution: inactive

====

# Measurement Notes: chemical genetic growth profiling, strain panel (AID 1159580);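 further: tested at 20 µM; growth read once vehicle control cultures reached saturation at 30 °C; 1 = growth at the plate median or of vehicle wells; lower values mean less growth of the strain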
# Run Conditions: S. cerevisiae deletion strains, growth OD, locus YJL095W, strain BCK1 (second series)
Out of some 5,500 compounds screened, about 2,000 (36%) were called active. Roughly 18% stayed inconclusive and do not appear here. Rule as the data show it: active = normalized growth mostly below about 0.91 (no sharp cut-off); inconclusive = no clear call, values can overlap the other calls; inactive = mostly above about 0.92. Some of the results follow.
Log the outcome using a class from active, inactive

Take a look at these entries with their results.
# Compound, Class
records = [
    ("Cc1ccccc1OCC(O)CO (stereo not drawn)", "inactive"),
    ("COc1ccc(Cl)cc1C(=O)NCCc1ccc(S(=O)(=O)NC(=O)NC2CCCCC2)cc1", "inactive"),
    ("COC1=CC(=O)C(O)=C/C1=C\\C=C\\c1ccccc1", "active"),
    ("CC1CC[C@@]2(OC1)O[C@H]1CC3C4CC[C@@H]5C[C@@H](O)CC[C@]5(C)C4CC[C@]3(C)[C@H]1[C@@H]2C (stereo partly drawn)", "inactive"),
    ("O=C(O)C1=C[C@@H](O)[C@@H](O)[C@H](O)C1", "inactive"),
    ("O=c1c(O)c(-c2ccc(O)c(O)c2)oc2c(O)c(O)cc(O)c12", "inactive"),
    ("O=C1C=C2C(=CCOC2O)O1 (stereo not drawn)", "active"),
    ("C[C@@H]1CC[C@@]2(OC1)OC1CC3C4CC=C5C[C@@H](O)CC[C@]5(C)C4CC[C@]3(C)C1[C@@H]2C (stereo partly drawn)", "inactive"),
    ("COC1=CC(=O)C(C(=O)c2ccccc2)=CC1=O", "inactive"),
    ("C=CC1C2=CCOC(=O)C2=COC1OC1OC(CO)C(O)C(O)C1O (stereo not drawn)", "inactive"),
]

Problem: Returns: the outcome recorded for CC(=O)OC(C)C[N+](C)(C)C (stereo not drawn) in this assay.
Solution: inactive

Problem: Try C[N+](C)(C)CC(O)CC(=O)O (stereo not drawn) next.
Solution: inactive

Problem: Next compound up: CCC(=O)c1c(O)cc(O)cc1O
Solution: inactive
